- Measurement Target: D(2) dopamine receptor (Homo sapiens)
- Procedure Summary: Antagonist activity at dopamine D2 receptor
The reader will find reported log10(IC50) values listed item by item below.
Use the decimal logarithm of IC50 (nM).

- CCc1cc(O)c(OC)c(C(=O)NC[C@@H]2CCCN2CC)c1OC: 0.11

Entry CCN1CCC[C@H]1CNC(=O)c1cc([N+](=O)[O-])cc(O)c1OC ; log10(IC50) = 3.48

###

- Measurement Target: D(2) dopamine receptor (Homo sapiens)
- Procedure Summary: Antagonist activity at dopamine D2 receptor
- Type: functional
Property Name: pIC50
By convention, pIC50 is the negative base-10 log of a molar concentration.

- CCN1CCC[C@H]1CNC(=O)c1cc(C)cc(O)c1OC: 7.72
- CCCc1ccc(OC)c(C(=O)NC[C@@H]2CCCN2CC)c1: 7.17
- CCN1CCC[C@H]1CNC(=O)c1c(OC)ccc(C)c1OC: 8.28

Entry CCc1cc(O)c(OC)c(C(=O)NC[C@@H]2CCCN2CC)c1F ; pIC50 = 8.82

Entry CCCCc1ccc(OC)c(C(=O)NC[C@@H]2CCCN2CC)c1OC ; pIC50 = 8.57

Entry CCN1CCC[C@H]1CNC(=O)c1c(OC)ccc(Br)c1O ; pIC50 = 8.00

Entry CCN1CCC[C@H]1CNC(=O)c1c(OC)c(O)cc(Cl)c1OC ; pIC50 = 8.77

Entry CCCc1cc(O)c(OC)c(C(=O)NC[C@@H]2CCCN2CC)c1Cl ; pIC50 = 8.49

Entry CCc1ccc(O)c(OC)c1C(=O)NC[C@@H]1CCCN1CC ; pIC50 = 6.91

Entry CCN1CCC[C@H]1CNC(=O)c1c(Cl)ccc(O)c1OC ; pIC50 = 7.19

###

- Measurement Target: D(2) dopamine receptor (Homo sapiens, UniProt P14416)
- Sequence (P14416 whole entry): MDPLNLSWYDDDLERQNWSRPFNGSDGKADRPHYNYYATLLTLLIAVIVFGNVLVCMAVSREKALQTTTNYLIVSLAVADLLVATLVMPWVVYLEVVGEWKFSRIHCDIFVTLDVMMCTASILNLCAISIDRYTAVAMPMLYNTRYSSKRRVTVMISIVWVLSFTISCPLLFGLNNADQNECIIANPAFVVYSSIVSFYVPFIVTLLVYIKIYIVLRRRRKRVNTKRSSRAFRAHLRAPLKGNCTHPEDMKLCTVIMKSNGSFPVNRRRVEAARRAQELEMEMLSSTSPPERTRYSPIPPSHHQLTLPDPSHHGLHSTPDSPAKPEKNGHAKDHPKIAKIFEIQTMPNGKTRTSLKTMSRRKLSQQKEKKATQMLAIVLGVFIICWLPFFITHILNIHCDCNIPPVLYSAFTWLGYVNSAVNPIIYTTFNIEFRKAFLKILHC
- Procedure Summary: Antagonist activity at dopamine D2 receptor
- Assay type: functional
pIC50: −log10 of the molar value.
Label YES when pIC50 is at or above 8; otherwise label NO.

Does the reported pIC50 for CCN1CCC[C@H]1CNC(=O)c1cc(OC)cc(O)c1OC fall at or above the 8 mark?
NO

Does the reported pIC50 for CCN1CCC[C@H]1CNC(=O)c1c(OC)ccc(Cl)c1Br fall at or above the 8 mark?
YES

Does the reported pIC50 for CCN1CCC[C@H]1CNC(=O)c1c(Br)ccc(O)c1OC fall at or above the 8 mark?
NO

Does the reported pIC50 for CCN1CCC[C@H]1CNC(=O)c1c(OC)c(O)cc(I)c1OC fall at or above the 8 mark?
YES

Does the reported pIC50 for CCN1CCC[C@H]1CNC(=O)c1c(OC)cccc1OC fall at or above the 8 mark?
NO

Does the reported pIC50 for CCN1CCC[C@H]1CNC(=O)c1c(OC)c(O)cc(Br)c1[N+](=O)[O-] fall at or above the 8 mark?
NO

Does the reported pIC50 for CCCc1c(C)cc(O)c(OC)c1C(=O)NC[C@@H]1CCCN1CC fall at or above the 8 mark?
NO

Does the reported pIC50 for CCc1ccc(OC)c(C(=O)NC[C@@H]2CCCN2CC)c1Cl fall at or above the 8 mark?
YES

Does the reported pIC50 for CCN1CCC[C@H]1CNC(=O)c1c(Br)c(Br)cc(O)c1OC fall at or above the 8 mark?
NO

Does the reported pIC50 for CCN1CCC[C@H]1CNC(=O)c1c(OC)c(O)cc(Br)c1OC fall at or above the 8 mark?
YES

Does the reported pIC50 for CCc1cc(O)c(OC)c(C(=O)NC[C@@H]2CCCN2CC)c1Br fall at or above the 8 mark?
YES

Does the reported pIC50 for CCN1CCC[C@H]1CNC(=O)c1c(Cl)c(C)cc(O)c1OC fall at or above the 8 mark?
NO

Does the reported pIC50 for CCN1CCC[C@H]1CNC(=O)c1cc(Cl)ccc1OC fall at or above the 8 mark?
NO

Does the reported pIC50 for CCN1CCC[C@H]1CNC(=O)c1cc(I)cc(O)c1OC fall at or above the 8 mark?
YES

Does the reported pIC50 for CCc1ccc(OC)c(C(=O)NC[C@@H]2CCCN2CC)c1 fall at or above the 8 mark?
NO

Does the reported pIC50 for CCc1cc(O)c(OC)c(C(=O)NC[C@@H]2CCCN2CC)c1Cl fall at or above the 8 mark?
YES

Does the reported pIC50 for CCN1CCC[C@H]1CNC(=O)c1c(Br)c(C)cc(O)c1OC fall at or above the 8 mark?
YES

Does the reported pIC50 for CCN1CCC[C@H]1CNC(=O)c1c(Br)c(OC)cc(O)c1OC fall at or above the 8 mark?
NO

Does the reported pIC50 for CCN1CCC[C@H]1CNC(=O)c1cc(Br)ccc1OC fall at or above the 8 mark?
NO

Does the reported pIC50 for CCN1CCC[C@H]1CNC(=O)c1cc(Cl)cc(O)c1OC fall at or above the 8 mark?
NO

Does the reported pIC50 for CCN1CCC[C@H]1CNC(=O)c1c(OC)ccc(Cl)c1Cl fall at or above the 8 mark?
NO

Does the reported pIC50 for CCCc1cc(O)c(OC)c(C(=O)NC[C@@H]2CCCN2CC)c1 fall at or above the 8 mark?
YES

Does the reported pIC50 for CCN1CCC[C@H]1CNC(=O)c1cccc(O)c1OC fall at or above the 8 mark?
NO

Does the reported pIC50 for CCN1CCC[C@H]1CNC(=O)c1c(OC)ccc(SC)c1OC fall at or above the 8 mark?
YES

Does the reported pIC50 for CCCc1c(Cl)cc(O)c(OC)c1C(=O)NC[C@@H]1CCCN1CC fall at or above the 8 mark?
NO

Does the reported pIC50 for CCN1CCC[C@H]1CNC(=O)c1c(OC)ccc(I)c1OC fall at or above the 8 mark?
YES

Does the reported pIC50 for CCN1CCC[C@H]1CNC(=O)c1c(Cl)c(Cl)cc(O)c1OC fall at or above the 8 mark?
NO
